These data points were gathered from the supplement of paper PMC10981050.

System: MARIMO;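 further: after 48 h exposure read by CellTiter-Glo luminescence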
Test: cell viability relative to vehicle control; higher = less cytotoxic
Conditions: 10 µM; SRSF2 genotype: SRSF2 wt/wt
Where a name gives a salt, the structure may show the parent alone.

Molecule	Measure unit	cell viability
CCCN(CCC)S(=O)(=O)c1ccc(C(=O)O)cc1	%	101
CCS(=O)(=O)Nc1ccc2[nH]c(O)c(C(=Nc3ccc(CN4CCCCC4)cc3)c3ccccc3)c2c1	%	9.42
CC(C)(C)c1nc(-c2cccc(NS(=O)(=O)c3c(F)cccc3F)c2F)c(-c2ccnc(N)n2)s1	%	75.8
COc1nccc(-c2c(-c3ccc(F)cc3)ncn2C2CCC(O)CC2)n1 (stereo not drawn)	%	110
Cc1ccc(-n2[nH]c(C)c(N=Nc3cccc(-c4cccc(C(=O)O)c4)c3O)c2=O)cc1C	%	69
CCCSc1ccc2[nH]c(NC(=O)OC)nc2c1	%	11.3
CN[C@H]1C(=O)N[C@@H]2Cc3ccc(cc3)Oc3cc4cc(c3O[C@@H]3O[C@H](C(=O)O)[C@@H](O)[C@H](O)[C@H]3NC(=O)CCCCCCCCC(C)C)Oc3ccc(cc3Cl)[C@@H](O)[C@@H]3NC(=O)[C@H](NC(=O)[C@@H]4NC(=O)[C@@H](NC2=O)c2cc(cc(O)c2Cl)Oc2cc1ccc2O)c1ccc(O)c(c1)-c1c(O[C@H]2O[C@H](CO)[C@@H](O)[C@H](O)[C@@H]2O)cc(O)cc1[C@@H](C(=O)NCCCN(C)C)NC3=O	%	103
Cn1cnc(-c2cc3nccc(Oc4ccc(NC(=S)NC(=O)Cc5ccccc5)cc4F)c3s2)c1	%	105
C[C@@H]1O[C@@H](O[C@H]2[C@H](O[C@H]3CC[C@@]4(C)[C@@H](CC[C@]5(C)[C@@H]4CC=C4[C@@H]6CC(C)(C)CC[C@]6(C(=O)O)CC[C@]45C)[C@]3(C)CO)OC[C@H](O[C@@H]3O[C@H](CO)[C@@H](O)[C@H](O)[C@H]3O)[C@@H]2O)[C@H](O)[C@H](O)[C@H]1O	%	0.67
O=C(Nc1cccc(Cl)c1)c1ccccn1	%	109
O=C(O)c1cccnc1Nc1cccc(C(F)(F)F)c1	%	97.8
Cc1cc(O)c2c(c1)C(=O)c1cc(O)cc(O)c1C2=O	%	100
CC1(C)CC[C@]2(C(=O)O)[C@H](O)C[C@]3(C)C(=CC[C@@H]4[C@@]5(C)CC[C@H](O)C(C)(C)[C@@H]5CC[C@]43C)[C@H]2C1	%	99.2
CC(C)(C)OC(=O)N[C@H]1CCCCC/C=C\[C@@H]2C[C@@]2(C(=O)NS(=O)(=O)C2CC2)NC(=O)[C@@H]2C[C@@H](OC(=O)N3Cc4cccc(F)c4C3)CN2C1=O	%	106
COc1cc2ncnc(Nc3cccc(Cl)c3F)c2cc1OC(=O)N1CCN(C)C[C@H]1C	%	106
CCOC(=O)c1cnc2ccc(-c3cncc(NS(=O)(=O)c4ccccc4)c3)cn12	%	20
CCC(=O)O[C@@H]1CC(=O)O[C@H](C)C/C=C/C=C/[C@H](O)[C@H](C)C[C@H](CC=O)[C@H](O[C@@H]2O[C@H](C)[C@@H](O[C@H]3C[C@@](C)(O)[C@@H](OC(=O)CC)[C@H](C)O3)[C@H](N(C)C)[C@H]2O)[C@H]1OC	%	102
N#CC(=C(/N)Sc1ccccc1N)/C(C#N)=C(\N)Sc1ccccc1N	%	37.1
COC(=O)c1c2c(c3ccccc3c1O)OC(C)(C)C=C2	%	39.7
CC(C)(N)C(=O)N[C@H](COCc1ccccc1)C(=O)N1CCC2(CC1)CN(S(C)(=O)=O)c1ccccc12 [Ibutamoren mesylate]	%	92
CC(=O)Nc1ccccc1 [Acetanilide (Antifebrin)]	%	106
C#C[C@]1(O)CC[C@H]2[C@@H]3CCC4=CC(=O)CC[C@@H]4[C@H]3C(=C)C[C@@]21CC	%	88.8
C=CC(=O)N1CC(=Cc2ccc([N+](=O)[O-])cc2)C(=O)C(=Cc2ccc([N+](=O)[O-])cc2)C1	%	1.15
CC/C(=C(/c1ccc(/C=C/C(=O)O)cc1)c1ccc2[nH]ncc2c1)c1ccc(F)cc1Cl	%	95.1
CC(=O)O[C@H]1CC(=O)OC(C)(C)[C@@H]2CC(=O)[C@]3(C)[C@H](CC[C@@]4(C)[C@@H](c5ccoc5)OC(=O)[C@H]5O[C@]543)[C@@]12C	%	105
COc1cc(C=O)cc(OC)c1O	%	112
CCOC(=O)C1=C(N)Oc2ccc(Cl)cc2C1C(C#N)C(=O)OCC (stereo not drawn)	%	55.8
C[C@H]1COc2c(N3CCN(C)CC3)c(F)cc3c(=O)c(C(=O)O)cn1c23 [Levofloxacin (Levaquin)]	%	101
